Experiment: Resazurin cell viability (cell toxicity) assay
Details: African green monkey
propertyName: viability at 24 h, 50 µM (%)
# number only, unit % dropped from output

# molecule, propertyName, obsValue
records = [
    ("O=C(Nc1ccccc1C(=O)Nc1ccccc1C(=O)O)c1ccccc1", "viability at 24 h, 50 µM", 88.3),
    ("O=C(Nc1cc(Cl)ccc1C(=O)Nc1ccccc1C(=O)O)c1ccccc1F [Compound 35f]", "viability at 24 h, 50 µM", 96.5),
    ("O=C(Nc1cc(F)c(F)cc1C(=O)Nc1ccccc1C(=O)O)c1ccccc1F", "viability at 24 h, 50 µM", 96.8),
]

# get_value(readout='viability at 24 h, 50 µM', item= CC(C)(C)C(=O)Nc1cc(F)c(F)cc1C(=O)Nc1ccccc1C(=O)O [Compound 17d] )
106

###

Each entry below lists one item and its recorded viability at 24 h, 100 µM value.
Experiment: Resazurin cell viability (cell toxicity) assay
Conditions: African green monkey
# number only, unit % dropped from output

# molecule, viability at 24 h, 100 µM, %
measured = [
    ("O=C(Nc1ccccc1C(=O)Nc1ccccc1C(=O)O)c1ccccc1 [Benzavir-1]", 88.1),
]

# get_value(readout='viability at 24 h, 100 µM', item= O=C(Nc1cc(Cl)ccc1C(=O)Nc1ccccc1C(=O)O)c1ccccc1F [Compound 35f] )
92.1

# repeat for O=C(Nc1cc(F)c(F)cc1C(=O)Nc1ccccc1C(=O)O)c1ccccc1F [Benzavir-2]
94.3

# repeat for CC(C)(C)C(=O)Nc1cc(F)c(F)cc1C(=O)Nc1ccccc1C(=O)O [Compound 17d]
105

###

Experiment: Resazurin cell viability (cell toxicity) assay
Conditions: African green monkey, Vero B4 cells
propertyName: viability at 24 h, 25 µM

# get_value(readout='viability at 24 h, 25 µM', item= NC(=O)c1nc(F)c[nH]c1=O [Favipiravir, reference compound] )
97.4%

###

Experiment: in vitro
Conditions: African green monkey
propertyName: viability at 24 h, 100 µM (%)
# number only, unit % dropped from output

# get_value(readout='viability at 24 h, 100 µM', item= NC(=O)c1ncn([C@@H]2O[C@H](CO)[C@@H](O)[C@H]2O)n1 [Ribavirin, reference compound] )
93.5

###

Test: Resazurin cell viability (cell toxicity) assay
Settings: African green monkey, Vero B4 cells
propertyName: viability at 24 h, 50 µM

# get_value(readout='viability at 24 h, 50 µM', item= NC(=O)c1nc(F)c[nH]c1=O [Favipiravir, reference compound] )
95%

###

Assay: Resazurin cell viability (cell toxicity) assay
Details: African green monkey
Each entry below lists one item and its recorded viability at 24 h, 25 µM value.
# number only, unit % dropped from output

// solved cases for viability at 24 h, 25 µM follow
# molecule, unitsLabel, viability at 24 h, 25 µM
data = [
    ("O=C(Nc1ccccc1C(=O)Nc1ccccc1C(=O)O)c1ccccc1", "%", 98.8),
    ("O=C(Nc1cc(Cl)ccc1C(=O)Nc1ccccc1C(=O)O)c1ccccc1F [Compound 35f]", "%", 105),
    ("CC(C)(C)C(=O)Nc1cc(F)c(F)cc1C(=O)Nc1ccccc1C(=O)O [Compound 17d]", "%", 105),
]

# get_value(readout='viability at 24 h, 25 µM', item= "O=C(Nc1cc(F)c(F)cc1C(=O)Nc1ccccc1C(=O)O)c1ccccc1F" )
100
